Reported self-cleavage by item:
B1: LINE1-full (parent)
chain: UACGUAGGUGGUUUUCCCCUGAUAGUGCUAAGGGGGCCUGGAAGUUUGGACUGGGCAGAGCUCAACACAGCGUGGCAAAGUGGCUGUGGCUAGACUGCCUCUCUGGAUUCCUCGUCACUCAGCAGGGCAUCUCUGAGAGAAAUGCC

Variants of: B1
Test: self-cleavage, relative activity (ratio to wild type); higher = more cleavage; in vitro, sequencing; the parent is a self-cleaving ribozyme

[
  {
    "construct_sequence": "UACGUAGGUGGUUUUCCCCUGAUAGUGCUAAGGGGGCCUGGAAGUUUGGACUGGGCAGAGCUCAACUCAGCGUGGCAAAGUGGCUGUGGCUAGACUGCCUCUCUGGAUUCCUCGUCACUCAGCAGGGCAUCUUUGAGAGAAAUGCC [A67U C133U]",
    "self-cleavage": 0.1
  }
]

Asked: What does the record list as self-cleavage for UACGUAGGUGGUUUUCCCCUGAUAGUGCUAAGGGGGCCUGGAAGUUUGGACUGGGCAGAGCUCAACACAGCGUGGCAAAGUGGCUGUGGCUAGACUGCCUCUCUGGUUCCCUCGUCACUCAGCAGGGCAUCUCUGAGAGAAAUGCC [A107U U109C] ?
Given back: 1.58

These measurements were taken from the RNAGym collection of RNA variant scans (doi:10.7554/elife.90254).
